# assay method text: Binding affinity to dog mu opioid receptor
# Parameters: species or system Canis lupus familiaris

smiles text	unit name	Ki
CS(=O)(=O)Nc1cccc([C@H]2[C@@H]3CN(CCCc4ccccc4)C[C@@H]32)c1	nM	379
C[C@]1(c2cccc(NS(C)(=O)=O)c2)[C@@H]2CN(CCCc3ccccc3)C[C@@H]21	nM	4.1

====

Entries annotated with measured pKi
# assay method text: Binding affinity to dog delta opioid receptor
# Design: species or system Canis lupus familiaris
pKi: −log10 of the molar value.
measurement label: pKi

smiles text	censoring qualifier	measured value
CS(=O)(=O)Nc1cccc([C@H]2[C@@H]3CN(CCCc4ccccc4)C[C@@H]32)c1	<	5.00
C[C@]1(c2cccc(NS(C)(=O)=O)c2)[C@@H]2CN(CCCc3ccccc3)C[C@@H]21	=	6.74

====

# measured on: Mu-type opioid receptor (Homo sapiens, UniProt P35372)
# Sequence (P35372 whole entry): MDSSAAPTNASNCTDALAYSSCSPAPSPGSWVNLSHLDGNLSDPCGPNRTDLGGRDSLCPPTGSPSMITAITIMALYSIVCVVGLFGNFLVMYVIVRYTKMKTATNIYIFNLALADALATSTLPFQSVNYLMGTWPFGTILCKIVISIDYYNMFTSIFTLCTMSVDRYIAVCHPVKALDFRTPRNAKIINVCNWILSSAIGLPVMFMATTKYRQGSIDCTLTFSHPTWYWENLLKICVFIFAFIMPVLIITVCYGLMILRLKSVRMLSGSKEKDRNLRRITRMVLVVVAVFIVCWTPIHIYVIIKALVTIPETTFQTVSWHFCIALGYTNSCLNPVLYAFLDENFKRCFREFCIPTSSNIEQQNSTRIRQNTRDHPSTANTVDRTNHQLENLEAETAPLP
pKi: −log10 of the molar value.

smiles text	pKi
C[C@]1(c2cccc(NS(C)(=O)=O)c2)[C@@H]2CN(CCCc3ccccc3)C[C@@H]21	8.32
